Measured disease control rating PIP accompanies every entry in the list below.
System: Phytophthora infestans
Format: in vivo
settings: tomato, direct protectant foliar spray
reported_property: disease control rating PIP

compound | test_result
CC(C)(C)C1CCC2(CC1)CC(N1CCCC3CCCCC31)CO2 (stereo not shown) | 0 (less than 50% disease control)
CCCCCCNC1COC2(CCC(C(C)(C)C)CC2)C1 (stereo not shown) [Compound 40] | 0 (less than 50% disease control)
C1CCC2CN(C3COC4(C3)C3CC5CC(C3)CC4C5)CCC2C1 (stereo not shown) | 1 (about 50-80% disease control)
CC(C)CNC1COC2(CCC(C(C)(C)C)CC2)C1 (stereo not shown) | 0 (less than 50% disease control)
CCN(CC)C1COC2(CCC(C(C)(C)C)CC2)C1 (stereo not shown) | 0 (less than 50% disease control)
CCCCCNC1COC2(CCC(C(C)(C)CC)CC2)C1 (stereo not shown) | 2 (greater than 80% disease control)
CC(C)(C)C1CCC2(CC1)CC(N1CCCC1)CO2 (stereo not shown) | 0 (less than 50% disease control)
CCCCN(Cc1cccnc1)C1COC2(CCC(C(C)(C)C)CC2)C1 (stereo not shown) | 0 (less than 50% disease control)
CCN(CC(C)(C)C)C1COC2(CCC(C(C)(C)C)CC2)C1 (stereo not shown) | 0 (less than 50% disease control)
CC(C)(C)CCNC1COC2(CCC(C(C)(C)C)CC2)C1 (stereo not shown) | 2 (greater than 80% disease control)
